System: healthy mice
test.conditions: mouse, in vivo, po, 160 mg/kg
Mice alive/Total mice listing for selected compounds.

{"columns": ["compound", "Mice alive/Total mice"],
 "data": [
  ["CN(CCCCCCCCNc1ccnc2ccccc12)Cc1ccc(-c2ccc(-c3ccc(C#N)cc3)s2)cc1", "5/5"],
  ["CC(CCCNc1ccnc2ccccc12)NCc1ccc(-c2csc3ccc(F)cc23)cc1 (stereo not shown)", "5/5"],
  ["CC(=O)O[C@H]1C[C@H]2[C@@H]([C@H](OC(C)=O)C[C@@H]3C[C@H](N)CC[C@@]32C)[C@@H]2CC[C@H]([C@H](C)CCCNC(C)CCCNc3ccnc4ccccc34)[C@@]12C (stereo partly shown)", "3/5"],
  ["CN(CCCNc1ccnc2cc(Cl)ccc12)CC12CC3CC(CC(C3)C1)C2", "4/5"],
  ["CC(CCN(C)CC12CC3CC(CC(C3)C1)C2)Nc1ccnc2cc(Cl)ccc12 (stereo not shown)", "3/5"],
  ["N#Cc1ccc(-c2ccc(-c3ccc(CNCCCCCCCCNc4ccnc5ccccc45)cc3)s2)cc1", "5/5"],
  ["CC(=O)O[C@H]1C[C@H]2[C@@H]([C@H](OC(C)=O)C[C@@H]3C[C@H](N)CC[C@@]32C)[C@@H]2CC[C@H]([C@H](C)CCCNCCCCNc3ccnc4cc(Cl)ccc34)[C@@]12C", "5/5"]
]}

---

Catalogue of % of full length SNAP-25, mES-MNs pre intoxication values
assayed.target: BoNT/A holotoxin (Clostridium botulinum, UniProt P0DPI1)
Sequence (P0DPI1 2-448 limits assumed): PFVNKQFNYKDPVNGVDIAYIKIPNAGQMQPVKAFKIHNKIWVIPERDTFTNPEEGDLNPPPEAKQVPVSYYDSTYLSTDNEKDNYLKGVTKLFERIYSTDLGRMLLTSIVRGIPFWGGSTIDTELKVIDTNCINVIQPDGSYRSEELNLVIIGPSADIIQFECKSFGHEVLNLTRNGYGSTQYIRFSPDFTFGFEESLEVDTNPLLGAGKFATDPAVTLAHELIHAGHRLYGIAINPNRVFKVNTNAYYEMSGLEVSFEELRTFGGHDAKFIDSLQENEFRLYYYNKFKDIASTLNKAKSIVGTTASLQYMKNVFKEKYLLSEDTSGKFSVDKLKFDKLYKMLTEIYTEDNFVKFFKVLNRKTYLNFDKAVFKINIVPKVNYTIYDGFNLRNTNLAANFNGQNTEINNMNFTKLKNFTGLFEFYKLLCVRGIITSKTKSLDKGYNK
test.protocol: cell-based
endpoint: % of full length SNAP-25, mES-MNs pre intoxication

{"columns": ["compound", "assayed.target", "recorded.measurement"],
 "data": [
  ["CN(CCCCCCCCNc1ccnc2ccccc12)Cc1ccc(-c2ccc(-c3ccc(C#N)cc3)s2)cc1 [Compound 96]", "BoNT/A holotoxin (Clostridium botulinum, UniProt P0DPI1)", "54; 60%"],
  ["CC(=O)O[C@H]1C[C@H]2[C@@H]([C@H](OC(C)=O)C[C@@H]3C[C@H](N)CC[C@@]32C)[C@@H]2CC[C@H]([C@H](C)CCCNCCCCNc3ccnc4cc(Cl)ccc34)[C@@]12C [Compound 16]", "BoNT/A holotoxin (Clostridium botulinum, UniProt P0DPI1)", "72; 88%"],
  ["CC(CCCNCc1ccc(-c2csc3ccc(F)cc23)cc1)Nc1ccnc2ccccc12 (centres unmarked) [Compound 91]", "BoNT/A holotoxin (Clostridium botulinum, UniProt P0DPI1)", "62; 62%"],
  ["CC(CCCN(C)Cc1ccc(-c2csc3ccc(C#N)cc23)cc1)Nc1ccnc2ccccc12 (centres unmarked) [Compound 38]", "BoNT/A holotoxin (Clostridium botulinum, UniProt P0DPI1)", "59; 64%"],
  ["CC(CCN(C)CC12CC3CC(CC(C3)C1)C2)Nc1ccnc2ccccc12 (centres unmarked) [Compound 85]", "BoNT/A holotoxin (Clostridium botulinum, UniProt P0DPI1)", "47; 46%"],
  ["N#Cc1ccc(-c2ccc(-c3ccc(CNCCCCCCCCNc4ccnc5ccccc45)cc3)s2)cc1 [Compound 93]", "BoNT/A holotoxin (Clostridium botulinum, UniProt P0DPI1)", "31; 70%"],
  ["CC(CCCNc1ccnc2ccccc12)NCc1ccc(-c2csc3ccc(F)cc23)cc1 (centres unmarked) [Compound 34]", "BoNT/A holotoxin (Clostridium botulinum, UniProt P0DPI1)", "58; 68%"],
  ["CC(=O)O[C@H]1C[C@H]2[C@@H]([C@H](OC(C)=O)C[C@@H]3C[C@H](N)CC[C@@]32C)[C@@H]2CC[C@H]([C@H](C)CCCN(C)CCCC(C)Nc3ccnc4ccccc34)[C@@]12C (some centres unmarked) [Compound 18]", "BoNT/A holotoxin (Clostridium botulinum, UniProt P0DPI1)", "20; 41%"]
]}

---

Each entry below carries its recorded % of full length SNAP-25, mES-MNs pre intoxication.
assayed.target: BoNT/A holotoxin (Clostridium botulinum, UniProt P0DPI1)
test.protocol: cell-based
test.conditions: 20 μM
endpoint: % of full length SNAP-25, mES-MNs pre intoxication

{"columns": ["compound", "recorded.measurement"],
 "data": [
  ["CC(CCN(C)CC12CC3CC(CC(C3)C1)C2)Nc1ccnc2cc(Cl)ccc12 (stereo not drawn) [Compound 60]", "63; 72%"],
  ["CC(CCNCCC12CC3CC(CC(C3)C1)C2)Nc1c(F)cnc2ccccc12 (stereo not drawn) [Compound 106]", "30; 32%"],
  ["CC(=O)O[C@H]1C[C@H]2[C@@H]([C@H](OC(C)=O)C[C@@H]3C[C@H](N)CC[C@@]32C)[C@@H]2CC[C@H]([C@H](C)CCCNC(C)CCCNc3ccnc4ccccc34)[C@@]12C (stereo partly drawn) [Compound 19]", "86; 87%"],
  ["CC(CCNc1ccnc2ccccc12)NCCC12CC3CC(CC(C3)C1)C2 (stereo not drawn) [Compound 81]", "23; 24%"],
  ["CC(=O)O[C@H]1C[C@H]2[C@@H]([C@H](OC(C)=O)C[C@@H]3C[C@H](N)CC[C@@]32C)[C@@H]2CC[C@H]([C@H](C)CCCNCCCC(C)Nc3ccnc4ccccc34)[C@@]12C (stereo partly drawn) [Compound 17]", "67; 69%"],
  ["CN(CCCCNc1ccnc2ccccc12)Cc1ccc(-c2csc3ccc(F)cc23)cc1 [Compound 37]", "44; 55%"]
]}

---

Recorded measurements of % of full length SNAP-25, mES-MNs pre intoxication, one per entry
assayed.target: BoNT/A holotoxin (Clostridium botulinum, UniProt P0DPI1)
test.protocol: cell-based
test.conditions: 10 μM
endpoint: % of full length SNAP-25, mES-MNs pre intoxication

{"columns": ["compound", "recorded.measurement"],
 "data": [
  ["CC(CCNCC12CC3CC(CC(C3)C1)C2)Nc1c(F)cnc2cc(Cl)ccc12 (centres unmarked) [Compound 104]", "31; 35%"],
  ["CC(=O)O[C@H]1C[C@H]2[C@@H]([C@H](OC(C)=O)C[C@@H]3C[C@H](NCCCCCCNc4ccnc5cc(Cl)ccc45)CC[C@@]32C)[C@@H]2CC[C@H]([C@H](C)CCCNCCCCCCNc3ccnc4cc(Cl)ccc34)[C@@]12C [Compound 1, reference compound]", "70; 84%"],
  ["CN(CCCNc1ccnc2ccccc12)CC12CC3CC(CC(C3)C1)C2 [Compound 68]", "30; 31%"],
  ["CC(CCNCCC12CC3CC(CC(C3)C1)C2)Nc1c(F)cnc2ccccc12 (centres unmarked) [Compound 106]", "30; 32%"],
  ["N#Cc1ccc(-c2ccc(-c3cccc(CNCCCCCCNc4ccnc5ccccc45)c3)s2)cc1 [Compound 50]", "46; 71%"]
]}
